Test system: HeLa Kyoto
assay overview: solubility change mitosis vs G1/S (difference of NP-40 vs SDS log2 ratios) (log2 ratio difference); higher = more soluble in mitosis
solubility change mitosis (log2) overview

residue sequence | target desc | solubility change mitosis (log2)
MRRAELAGLKTMAWVPAESAVEELMPRLLPVEPCDLTEGFDPSVPPRTPQEYLRRVQIEAAQCPDVVVAQIDPKKLKRKQSVNISLSGCQPAPEGYSPTLQWQQQQVAQFSTVRQNVNKHRSHWKSQQLDSNVTMPKSEDEEGWKKFCLGEKLCADGAVGPATNESPGIDYVQIGFPPLLSIVSRMNQATVTSVLEYLSNWFGERDFTPELGRWLYALLACLEKPLLPEAHSLIRQLARRCSEVRLLVDSKDDERVPALNLLICLVSRYFDQRDLADEPS [GEMIN2] | HeLa Kyoto | 0.437
MFNRAVSRLSRKRPPSDIHDSDGSSSSSHQSLKSTAKWAASLENLLEDPEGVKRFREFLKKEFSEENVLFWLACEDFKKMQDKTQMQEKAKEIYMTFLSSKASSQVNVEGQSRLNEKILEEPHPLMFQKLQDQIFNLMKYDSYSRFLKSDLFLKHKRTEEEEEDLPDAQTAAKRASRIYNT [RGS10] | HeLa Kyoto | 0.405

----------
Reported values of solubility change mitosis (log2) for individual entries
Tested on: HeLa Kyoto
assay overview: solubility change mitosis vs G1/S (difference of NP-40 vs SDS log2 ratios) (log2 ratio difference); higher = more soluble in mitosis

residue sequence | target desc | solubility change mitosis (log2)
MSRLRALLGLGLLVAGSRVPRIKSQTIACRSGPTWWGPQRLNSGGRWDSEVMASTVVKYLSQEEAQAVDQELFNEYQFSVDQLMELAGLSCATAIAKAYPPTSMSRSPPTVLVICGPGNNGGDGLVCARHLKLFGYEPTIYYPKRPNKPLFTALVTQCQKMDIPFLGEMPAEPMTIDELYELVVDAIFGFSFKGDVREPFHSILSVLKGLTVPIASIDIPSGWDVEKGNAGGIQPDLLISLTAPKKSATQFTGRYHYLGGRFVPPALEKKYQLNLPPYPDTECVYRLQ [APOA1BP] | HeLa Kyoto | 0.417
MAERQEEQRGSPPLRAEGKADAEVKLILYHWTHSFSSQKVRLVIAEKALKCEEHDVSLPLSEHNEPWFMRLNSTGEVPVLIHGENIICEATQIIDYLEQTFLDERTPRLMPDKESMYYPRVQHYRELLDSLPMDAYTHGCILHPELTVDSMIPAYATTRIRSQIGNTESELKKLAEENPDLQEAYIAKQKRLKSKLLDHDNVKYLKKILDELEKVLDQVETELQRRNEETPEEGQQPWLCGESFTLADVSLAVTLHRLKFLGFARRNWGNGKRPNLETYYERVLKRKTFNKVLGHVNNILISAVLPTAFRVAKKRAPKVLGTTLVVGLLAGVGYFAFMLFRKRLGSMILAFRPRPNYF [GDAP1] | HeLa Kyoto | -0.1

----------
List of solubility in G1/S (log2) values.
Test system: HeLa Kyoto
assay overview: solubility in G1/S (NP-40 vs SDS abundance) (log2 ratio); higher = more soluble
cond: cell cycle stage: G1/S
observable: solubility in G1/S (log2)

substance | target desc | observable | value observed
MTSVTRSEIIDEKGPVMSKTHDHQLESSLSPVEVFAKTSASLEMNQGVSEERIHLGSSPKKGGNCDLSHQERLQSKSLHLSPQEQSASYQDRRQSWRRASMKETNRRKSLHPIHQGITELSRSISVDLAESKRLGCLLLSSFQFSIQKLEPFLRDTKGFSLESFRAKASSLSEELKHFADGLETDGTLQKCFEDSNGKASDFSLEASVAEMKEYITKFSLERQTWDQLLLHYQQEAKEILSRGSTEAKITEVKVEPMTYLGSSQNEVLNTKPDYQKILQNQSKVFDCMELVMDELQGSVKQLQAFMDESTQCFQKVSVQLGKRSMQQLDPSPARKLLKLQLQNPPAIHGSGSGSCQ [DSN1] | HeLa Kyoto | solubility in G1/S (log2) | 0.0805
MSRLRALLGLGLLVAGSRVPRIKSQTIACRSGPTWWGPQRLNSGGRWDSEVMASTVVKYLSQEEAQAVDQELFNEYQFSVDQLMELAGLSCATAIAKAYPPTSMSRSPPTVLVICGPGNNGGDGLVCARHLKLFGYEPTIYYPKRPNKPLFTALVTQCQKMDIPFLGEMPAEPMTIDELYELVVDAIFGFSFKGDVREPFHSILSVLKGLTVPIASIDIPSGWDVEKGNAGGIQPDLLISLTAPKKSATQFTGRYHYLGGRFVPPALEKKYQLNLPPYPDTECVYRLQ [APOA1BP] | HeLa Kyoto | solubility in G1/S (log2) | 0.462
ARHGEF17 | HeLa Kyoto | solubility in G1/S (log2) | -0.434
